# System: A549
# protocol: Antiproliferative activity against human A549 cells assessed as inhibition of cell growth
# Format: functional, cell-based
property-name: pIC50
# pIC50 is unitless: minus log10 of the molar concentration; print number only

Reference set, count: 4
Q: Reported pIC50 for `NCCN1C(=O)c2cccc3cc(NC(=O)c4ccccn4)cc(c23)C1=O` : what is it?
Ans: 5.28

Q: Please do the same for `C#CCCCCNCCN1C(=O)c2cccc3cc(NC(=O)c4ccccn4)cc(c23)C1=O` as well.
Ans: 5.33

Q: Quick one: CN(C)CCN1C(=O)c2cccc3cc([N+](=O)[O-])cc(c23)C1=O [MITONAFIDE]
Ans: 5.82

Q: And what about the molecule `CN(C)CCN1C(=O)c2cccc3cc(NC(=O)c4ccccn4)cc(c23)C1=O` ?
Ans: 5.55

Continuing:
Q: Entry under review: CN(C)CCN1C(=O)c2cccc3cc(N)cc(c23)C1=O [AMONAFIDE] . Reported pIC50?
Ans: 5.37

Q: Ok, now `CNCCN1C(=O)c2cccc3cc(NC(=O)c4ccccn4)cc(c23)C1=O`
Ans: 5.54

Q: Repeat for the following molecule: `CNCCN1C(=O)c2cccc3cc([N+](=O)[O-])cc(c23)C1=O`
Ans: 5.55

====

# protocol: Antiproliferative activity against mouse A261 cells assessed as inhibition of cell growth
# Assay type: functional, cell-based
property-name: pIC50
Value format note: pIC50 is -log10 of concentration (mol/L); just state the number.

Q: Data request, read-out pIC50, for CN(C)CCN1C(=O)c2cccc3cc([N+](=O)[O-])cc(c23)C1=O [MITONAFIDE]
Ans: 5.55

Q: Now this one: `C#CCCCCNCCN1C(=O)c2cccc3cc(NC(=O)c4ccccn4)cc(c23)C1=O`
Ans: 5.28

Q: // repeat for `CN(C)CCN1C(=O)c2cccc3cc(NC(=O)c4ccccn4)cc(c23)C1=O` and report
Ans: 5.48

Q: Next record, please: `CNCCN1C(=O)c2cccc3cc([N+](=O)[O-])cc(c23)C1=O`
Ans: 5.60

Q: `C#CCCC1(CCNCCN2C(=O)c3cccc4cc(NC(=O)c5ccccn5)cc(c34)C2=O)N=N1` , same question.
Ans: 5.07

Q: Query `CNCCN1C(=O)c2cccc3cc(NC(=O)c4ccccn4)cc(c23)C1=O` next
Ans: 5.46

Q: Query `NCCN1C(=O)c2cccc3cc(NC(=O)c4ccccn4)cc(c23)C1=O` next
Ans: 5.39

As a next step, examine the molecule that follows.
Q: Please give the measured pIC50 for this molecule: CN(C)CCN1C(=O)c2cccc3cc(N)cc(c23)C1=O [AMONAFIDE]
Ans: 5.04

====

# protocol: Cytotoxicity against HLF cells assessed as inhibition of cell growth
# Type: toxicity, cell-based
# setup-conditions: human
property-name: IC50

Q: Dear colleague, I am looking for the recorded IC50 of the following molecule: `C#CCN(C)CCN1C(=O)c2cccc3cc(N)cc(c23)C1=O`
Ans: > 20 µM

Q: Request: `CN(C)CCN1C(=O)c2cccc3cc(NC(=O)c4ccccn4)cc(c23)C1=O`
Ans: 9.9 µM

Q: What do we get for CN(C)CCN1C(=O)c2cccc3cc(N)cc(c23)C1=O [AMONAFIDE] ?
Ans: 8.8 µM

Q: And the next one, `C#CCN(C)CCN1C(=O)c2cccc3cc(NC(=O)C=C)cc(c23)C1=O` ?
Ans: > 20 µM

# next molecule below
Q: Entry under review: `C=CC(=O)N(C)CCN1C(=O)c2cccc3cc([N+](=O)[O-])cc(c23)C1=O` . Reported IC50?
Ans: > 20 µM

====

Entries and their selectivity ratio values follow.
# protocol: Selectivity index, ratio of IC50 for cytotoxicity against HLF cells to IC50 for antiproliferative activity against human A549 cells
# Format: cell-based
# setup-conditions: HLF cells versus A549 cells, read-out: Ratio IC50
# output: bare number, no unit

Study these solved cases before continuing.
Q: Record request: selectivity ratio value, item CN(C)CCN1C(=O)c2cccc3cc([N+](=O)[O-])cc(c23)C1=O [MITONAFIDE]
Ans: 1.9

Q: Next molecule: `CN(C)CCN1C(=O)c2cccc3cc(NC(=O)c4ccccn4)cc(c23)C1=O`
Ans: 3.5

Now take the following molecule into account.
Q: Which measured selectivity ratio value corresponds to `CNCCN1C(=O)c2cccc3cc([N+](=O)[O-])cc(c23)C1=O` ?
Ans: 2.5

====

# system: Alpha-ketoglutarate-dependent dioxygenase FTO (Homo sapiens)
# Sequence (Q9C0B1 whole entry): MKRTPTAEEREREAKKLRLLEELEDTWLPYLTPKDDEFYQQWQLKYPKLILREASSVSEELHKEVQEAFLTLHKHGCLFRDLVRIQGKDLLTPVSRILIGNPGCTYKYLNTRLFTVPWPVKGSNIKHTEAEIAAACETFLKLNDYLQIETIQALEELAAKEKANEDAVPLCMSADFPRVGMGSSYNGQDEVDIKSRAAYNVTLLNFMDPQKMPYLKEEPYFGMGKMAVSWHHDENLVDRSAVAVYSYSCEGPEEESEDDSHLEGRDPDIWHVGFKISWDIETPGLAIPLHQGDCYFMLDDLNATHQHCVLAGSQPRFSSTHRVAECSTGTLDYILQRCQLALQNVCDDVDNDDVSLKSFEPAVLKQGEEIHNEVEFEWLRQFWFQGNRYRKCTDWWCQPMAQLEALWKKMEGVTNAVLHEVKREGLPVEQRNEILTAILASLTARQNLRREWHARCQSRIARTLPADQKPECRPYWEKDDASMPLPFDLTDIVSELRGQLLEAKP
property-name: IC50 (µM)
Express your answer in µM, writing the number without its unit.

Q: # IC50 lookup, item CN(C)CCN1C(=O)c2cccc3cc([N+](=O)[O-])cc(c23)C1=O [MITONAFIDE]
Ans: 34.8

====

# protocol: Cytotoxicity against HLF cells assessed as inhibition of cell growth
# Type: toxicity, cell-based
# setup-conditions: human
property-name: pIC50
Field pIC50 (float): negative decimal logarithm of the concentration in molar.

Q: Data request, read-out pIC50, for CN(C)CCN1C(=O)c2cccc3cc([N+](=O)[O-])cc(c23)C1=O [MITONAFIDE]
Ans: 5.55

Please find the next molecule below.
Q: Reported pIC50, molecule `CNCCN1C(=O)c2cccc3cc([N+](=O)[O-])cc(c23)C1=O` : ____
Ans: 5.16
